Reference for the values: PubChem BioAssay (NCI)

Tested on: SN12C renal
PROCEDURE TEXT: NCI-60 one-dose screen, 48 h (100 = growth as untreated, 0 = no growth, -100 = all killed)
MEASUREMENT SETUP: 10 µM unless noted
About 83,000 compounds went through this panel and 20% of them were active in at least one assay; those are over-represented in the sample as a whole.
List of growth values.
Respond numerically; units are % and should not be typed.

Solved entries (count: 5):
Input: For SN12C renal, provide growth of COC(=O)c1ccccc1C(=O)c1c(C)cc(C)cc1C please.
Output: 99.9

Input: Param readout= growth; system= SN12C renal; entry= Cc1ccc2nc(N)nnc2c1 ; returns value.
Output: 98.4

Input: What growth appears in the records for this compound with SN12C renal? COc1cc(CC#N)c([N+](=O)[O-])cc1OC
Output: 104

Input: # get_value(readout= growth, system= SN12C renal) for Nc1ncc([N+](=O)[O-])cn1
Output: 101

Input: GET /values?readout=growth&system=SN12C renal&item= C=CCc1cc(OC)c(OC)c(OC)c1
Output: 99.5

Continuing:
Input: Given the entry Nc1nnc2cc(F)ccc2n1 , what growth was observed with SN12C renal?
Output: 89.1

Input: Param readout = growth; param system = SN12C renal; param query = O=C(O)c1cccc(-n2ncc(Cl)c(Cl)c2=O)c1 ; response: value
Output: 100

Input: Query the reported growth for SN12C renal; item: CNc1ccccc1C(N)=O
Output: 94.8

Input: Hello, I am looking for reported growth with SN12C renal for CC(=O)c1ccc(C)cc1 . Could you help?
Output: 103

Input: Provide the documented growth with SN12C renal as the system for NC(=O)c1cc2c3ccccc3ccn2c1-c1ccccc1
Output: 28.5

Input: Write down the reported growth of CSc1nsc(N)n1 , test system: SN12C renal.
Output: 96

Input: Recall the recorded growth for Oc1ccc(N=Cc2ccc(OCc3ccccc3)cc2)cc1 with SN12C renal and state it.
Output: 101
